# target under test: Human GLP-1 receptor (Homo sapiens, UniProt P43220)
# Construct: expressed in transfected cells
# Sequence (P43220 24-463): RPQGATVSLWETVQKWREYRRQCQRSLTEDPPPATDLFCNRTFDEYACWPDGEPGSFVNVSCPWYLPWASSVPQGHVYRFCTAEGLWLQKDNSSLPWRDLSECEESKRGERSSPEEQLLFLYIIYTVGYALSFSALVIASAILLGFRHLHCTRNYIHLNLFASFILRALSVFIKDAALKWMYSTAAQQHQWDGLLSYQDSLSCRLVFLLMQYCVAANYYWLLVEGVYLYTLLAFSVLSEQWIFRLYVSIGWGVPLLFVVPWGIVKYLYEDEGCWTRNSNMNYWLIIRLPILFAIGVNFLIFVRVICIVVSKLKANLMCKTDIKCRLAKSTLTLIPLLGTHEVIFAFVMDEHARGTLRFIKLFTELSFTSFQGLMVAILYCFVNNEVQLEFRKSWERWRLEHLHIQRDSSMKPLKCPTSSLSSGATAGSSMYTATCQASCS
# run description: Measurement of GLP-1 receptor agonist activity (cAMP assay)
# Type: cell-based
# applied conditions: hGLP-1R/CHO-K1 cells, cAMP increase, 37° C. 1 hour
Listed here are molecules together with their documented log10 EC50.
Short version: log10 scale, EC50, nM.

Please look at this molecule and report its log10 EC50: Cc1cn(C)nc1COc1cc2c(cc1C(F)(F)F)CCN(Cc1nc3ccc(C(=O)O)cc3n1C[C@@H]1CCO1)C2
2.00

====

# target under test: Human GLP-1 receptor (Homo sapiens)
# Construct: expressed in transfected cells
# run description: Measurement of GLP-1 receptor agonist activity (cAMP assay)
# Assay type: cell-based
# applied conditions: CHO-K1, hGLP-1R/CHO-K1 cells, cAMP; 100% = human GLP-1 (7-36) at 2 nM, 0% = DMSO only; read-out: Emax(%)
observable: Emax (%)
Expressed in %, but write only the number.

Record excerpt, results attached:
O=C(O)c1ccc2nc(Cc3cc4nc(OCc5ccc(Cl)cc5F)c(C(F)(F)F)nc4cc3F)n(C[C@@H]3CCO3)c2c1 = 81.3
C[C@H]1c2cc(OCc3ccc(Cl)cn3)c(C(F)(F)F)cc2CCN1Cc1nc2ccc(C(=O)O)c(F)c2n1C[C@@H]1CCO1 = 130

// fetch Emax given entry C[C@H]1c2cc(OCc3cc(F)c(Cl)cc3F)c(C(F)(F)F)cc2CCN1Cc1nc2c(F)cc(C(=O)O)cc2n1C[C@@H]1CCO1
122

====

# target under test: Human GLP-1 receptor (Homo sapiens)
# Construct: expressed in transfected cells
# run description: Measurement of GLP-1 receptor agonist activity (cAMP assay)
# Type: cell-based
# applied conditions: CHO-K1, hGLP-1R/CHO-K1 cells, cAMP; 100% = human GLP-1 (7-36) at 2 nM, 0% = DMSO only; read-out: Emax(%)
Measured Emax values are reported for all entries that follow.
Field format: number, assumed %, no unit text.

O=C(O)c1ccc2nc(CN3CCc4cc(C(F)(F)F)c(OCc5ccc(Cl)cn5)cc4C3)n(C[C@@H]3CCO3)c2c1 = 130
C[C@H]1c2cc(OCc3ccc(C#N)cc3)c(C(F)(F)F)cc2CCN1Cc1nc2c(F)cc(C(=O)O)cc2n1C[C@@H]1CCO1 = 114
O=C(NS(=O)(=O)C1CC1)c1ccc2nc(CN3CCc4cc(C(F)(F)F)c(OCc5ccc(Cl)cc5F)cc4C3)n(C[C@@H]3CCO3)c2c1 = 87.3
O=C(O)c1ccc2nc(CN3CCc4cc(C(F)(F)F)c(OCc5ccc(C(F)(F)F)cc5)cc4C3)n(C[C@@H]3CCO3)c2c1 = 93
C[C@H]1c2cc(OCc3c(F)cc(F)cc3F)c(C(F)(F)F)cc2CCN1Cc1nc2ccc(C(=O)O)nc2n1C[C@@H]1CCO1 = 90.3

Determine from records and report Emax for C[C@H]1c2cc(OCc3c(F)cc(F)cc3F)c(C(F)(F)F)cc2CCN1Cc1nc2ccc(C(=O)O)c(F)c2n1C[C@@H]1CCO1
99.7

Answer with the recorded Emax for the molecule listed here: O=C(O)c1ccc2nc(CN3CCc4cc(C(F)(F)F)c(OCc5ccc(C(F)F)cc5F)cc4C3)n(C[C@@H]3CCO3)c2c1
110

Output measured Emax for this item: C[C@H]1c2cc(OCc3ccc(F)cc3)c(C(F)(F)F)cc2CCN1Cc1nc2c(F)cc(C(=O)O)cc2n1C[C@@H]1CCO1
119

Given the molecule O=C(O)c1ccc2nc(CN3CCc4cc(C(F)F)c(OCc5ccc(Cl)cc5F)cc4C3)n(C[C@@H]3CCO3)c2c1 , write its reported Emax.
80

State its Emax: COc1cc(Cl)ccc1COc1cc2c(cc1C(F)(F)F)CCN(Cc1nc3ccc(C(=O)O)cc3n1C[C@@H]1CCO1)C2
117

Tell us which Emax value is on record for O=C(O)c1cc(F)c2nc(CN3CCc4cc(C(F)(F)F)c(OCc5ccc(Cl)cc5F)cc4C3)n(C[C@@H]3CCO3)c2c1
109

Answer with the recorded Emax for the molecule listed here: C[C@H]1c2cc(OCc3ccc(Cl)cc3)c(C(F)(F)F)cc2CCN1Cc1nc2c(F)cc(C(=O)O)cc2n1C[C@@H]1CCO1
109

Look up and state reported Emax for O=C(O)c1ccc2nc(CN3CCc4cc(C(F)(F)F)c(OCc5ccc(Cl)cc5F)cc4C3)n(C[C@@H]3CCO3)c2n1
85

====

# target under test: Human GLP-1 receptor (Homo sapiens)
# Construct: expressed in transfected cells
# run description: Measurement of GLP-1 receptor agonist activity (cAMP assay)
# Assay type: cell-based
# applied conditions: cAMP increase in GLP-1 R/CHO-K1 cells; 2 nM human GLP-1 (7-36) = 100%, DMSO only = 0%
observable: EC50 (nM)
Answer format: numeric, nM implied, no suffix.

Record excerpt, results attached:
C[C@H]1c2nc(OCc3ccc(F)cc3)c(C(F)(F)F)cc2CCN1Cc1nc2c(F)cc(C(=O)O)cc2n1C[C@@H]1CCO1 = 0.0609
COc1cc(C(=O)O)cc2c1nc(CN1CCc3cc(Cl)c(OCc4ccc(C)cc4)cc3[C@@H]1C)n2C[C@@H]1CCO1 = 0.31
C[C@H]1c2cc(OCc3ccc(C4CC4)cc3)c(Cl)cc2CCN1Cc1nc2ccc(C(=O)O)c(F)c2n1C[C@@H]1CCO1 = 9.85
COc1cc(Cl)ccc1COc1cc2c(cc1Cl)CCN(Cc1nc3ccc(C(=O)O)nc3n1C[C@@H]1CCO1)[C@H]2C = 0.537
COc1ccc(COc2cc3c(cc2C(F)(F)F)CCN(Cc2nc4c(OC)cc(C(=O)O)cc4n2C[C@@H]2CCO2)[C@H]3C)cc1 = 1.41

Return value of EC50 for input Cc1ccc(COc2cc3c(cc2Cl)CCN(Cc2nc4c(F)cc(C(=O)O)cc4n2C[C@@H]2CCO2)[C@H]3C)cc1 , no commentary.
1.22

====

# EC50 values compiled below
# target under test: Human GLP-1 receptor (Homo sapiens, UniProt P43220)
# Construct: expressed in transfected cells
# run description: Measurement of GLP-1 receptor agonist activity (cAMP assay)
# Type: cell-based
# applied conditions: hGLP-1R/CHO-K1 cells, cAMP increase, 37° C. 1 hour
Field: numeric (nM). Do not append units.

Cc1cc(COc2cc3c(cc2C(F)(F)F)CCN(Cc2nc4ccc(C(=O)O)cc4n2C[C@@H]2CCO2)C3)no1 = 23.4
O=C(O)c1ccc2nc(CN3CCc4cc(C(F)(F)F)c(OCc5c(F)cccc5Cl)cc4C3)n(C[C@@H]3CCO3)c2c1 = 16.3

Please turn your attention to the following entry.
Please report EC50 for the following molecule: O=C(O)c1ccc2nc(CN3CCc4cc(C(F)(F)F)c(OCc5c(F)cc(F)cc5F)cc4C3)n(C[C@@H]3CCO3)c2c1
3.5

====

// reported Emax per item
# target under test: Human GLP-1 receptor (Homo sapiens, UniProt P43220)
# Construct: expressed in transfected cells
# run description: Measurement of GLP-1 receptor agonist activity (cAMP assay)
# Assay type: cell-based
# applied conditions: CHO-K1, maximum effect, cAMP increase in GLP-1 R/CHO-K1 cells; 2 nM human GLP-1 (7-36) = 100%, DMSO only = 0%; read-out: Emax
Your answer is read as %, so omit the unit and give the number.

COc1cc(C(=O)O)cc2c1nc(CN1CCc3cc(C(F)(F)F)c(OCc4ccccc4Cl)nc3[C@@H]1C)n2C[C@@H]1CCO1 = 120
C[C@H]1c2cc(OCc3ccc(Cl)cn3)c(Cl)cc2CCN1Cc1nc2ccc(C(=O)O)cc2n1C[C@@H]1CCO1 = 84.3

Note down Emax recorded for Cc1ccc(COc2nc3c(cc2C(F)(F)F)CCN(Cc2nc4ccc(C(=O)O)c(F)c4n2C[C@@H]2CCO2)[C@H]3C)cc1
115

====

# target under test: Human GLP-1 receptor (Homo sapiens)
# Construct: expressed in transfected cells
# run description: Measurement of GLP-1 receptor agonist activity (cAMP assay)
# Assay type: cell-based
# applied conditions: cAMP increase in GLP-1 R/CHO-K1 cells; 2 nM human GLP-1 (7-36) = 100%, DMSO only = 0%
# key: entry, value: EC50
Number in pM, nothing else.

O=C(O)c1ccc2nc(CN3CCc4cc(C(F)(F)F)c(OCc5cc(F)c(Cl)cc5F)nc4C3)n(C[C@@H]3CCO3)c2c1 = 806
COc1cc(Cl)ccc1COc1nc2c(cc1C(F)(F)F)CCN(Cc1nc3c(F)cc(C(=O)O)cc3n1C[C@@H]1CCO1)C2 = 159
COc1cc(C(=O)O)cc2c1nc(CN1CCc3cc(C(F)(F)F)c(OCc4ccc(F)cc4)nc3[C@@H]1C)n2C[C@@H]1CCO1 = 16

State EC50 (Human GLP-1 receptor (Homo sapiens)) of C[C@H]1c2nc(OCc3c(F)cc(F)cc3F)c(C(F)(F)F)cc2CCN1Cc1nc2c(F)cc(C(=O)O)cc2n1C[C@@H]1CCO1 .
49.5

Send back Human GLP-1 receptor (Homo sapiens) EC50 of O=C(O)c1ccc2nc(CN3CCc4cc(C(F)(F)F)c(OCc5ccc(Cl)cc5)nc4C3)n(C[C@@H]3CCO3)c2n1 only.
1760

Consider the molecule C[C@H]1c2nc(OCc3ccc(Cl)cc3F)c(C(F)(F)F)cc2CCN1Cc1nc2c(F)cc(C(=O)O)cc2n1C[C@@H]1CCO1 tested on Human GLP-1 receptor (Homo sapiens); state its EC50.
30.1

Look up and report EC50, with Human GLP-1 receptor (Homo sapiens) as system, for O=C(O)c1ccc2nc(CN3CCc4cc(C(F)(F)F)c(OCc5ccc(F)cc5)nc4C3)n(C[C@@H]3CCO3)c2c1
3940
